- Test system: endogenous genome targets (ACTB, HSP90AA1)
- Assay Comment: Arrayed SSAP library screening, mKate knock-in assay (editing efficiency)
- Assay type: cell-based
- Condition: percent of mKate knock-in; average of HSP90 and ACTB; 3 days after transfection
- Description: Arrayed SSAP library screening on endogenous genome targets (ACTB. HSP90AA1) using mKate knock-in assay. SSAP-encoding plasmids were purified and quantified. […] Three days after transfection, mKate positive cells and cell viability were quantified across all replicates, along with positive (original RecT SSAP) and negative (Flag-HA control protein) controls. […]
Result Type: Editing Efficiency (Absolute, Average, two targets)
The reply should be a number, written without any unit.

Task: Look at this molecule and give its reported Editing Efficiency (Absolute, Average, two targets). SSAP_211: SEQ ID NO: 380; unclassified Streptomyces (protein, listed as Streptomyces sp.) SQIGNAIATRDEGPAAQIEVYRDEYAALVPSHVNADQWVRLAVGAIRGNDDLLKAAGNDIGLFLREMKTAARLGLEPGTEQFYLTPRKSKAHGGRPVIKGIVGYQGIVELIYRAGAASTVIVEAVRQNDVFRYVPGRDDRPVHEIDWFGQDRGPLVGVYAYAVMKDGAVSKVVVLNKARVMELKAKSDSKNSPYSPWNTNEEAMWLKSGVRQLAKWVPTSAEFRRDQLLAHTDTADGVIASVSAPPLPPQSAALEDLDPDDEGPIDGELLDD
Result: 13.65

Task: // Editing Efficiency (Absolute, Average, two targets) lookup, key: SSAP_16: SEQ ID NO: 185 (protein) MAKENYSDPNGKLLNSITTFEVNGEEVKLSGNIIRDYLVSGNAEVTDQEIIMFLQLCKYQKLNPFLNEAYLVKFKNTKGPDKPAQIIVSKEAFMKRAETHEQYDGFEAGVIVERGGEIIELEGAVSLASDKLLGGWAKVFRKDRNRPVSVRISEKEFNKRQSTWNTMPLTMMRKTAVVNAMREAFPDNLGAMYTEEEQGSLQNTETSVQQEIKQNANAEVLDIPSQQNEVPDFKEVREPEHVEMPPIYGEQQSTPPARPY
Result: 20.95
